ASSAY: Fluorescence (photoluminescence) intensity in ethanol, fluorescence spectrophotometer RF-5300PC
Type: physicochemical
TEST_SETTINGS: 25 mg of compound in 100 ml of ethanol

COMPOUND	center of Luminous Wave
O=C(C=C([O-])C(F)(F)F)c1ccccc1.O=C(C=C([O-])C(F)(F)F)c1ccccc1.O=C(C=C([O-])C(F)(F)F)c1ccccc1.[Eu+3] [Metal Complex Intermediate 3]	(613 nm)
CCCC[N+](C)(C)CCCC[N+](C)(C)CCCC.O=C(C=C([O-])C(F)(F)F)c1ccc2ccccc2c1.O=C(C=C([O-])C(F)(F)F)c1ccc2ccccc2c1.O=C(C=C([O-])C(F)(F)F)c1ccc2ccccc2c1.O=C(C=C([O-])C(F)(F)F)c1ccc2ccccc2c1.O=C(C=C([O-])C(F)(F)F)c1ccc2ccccc2c1.O=C(C=C([O-])C(F)(F)F)c1ccc2ccccc2c1.O=C(C=C([O-])C(F)(F)F)c1ccc2ccccc2c1.O=C(C=C([O-])C(F)(F)F)c1ccc2ccccc2c1.[Eu+3].[Eu+3] [Luminous Organic Compound 6]	(613 nm)
O=C(C=C([O-])C(F)(F)F)c1ccc2ccccc2c1.O=C(C=C([O-])C(F)(F)F)c1ccc2ccccc2c1.O=C(C=C([O-])C(F)(F)F)c1ccc2ccccc2c1.[Eu+3] [Metal Complex Intermediate 1]	(613 nm)

---

TEST_SETTINGS: methyl ethyl ketone; stood at room temperature overnight
RESULT_TYPE: Solubility, Methyl Ethyl Ketone

SMILES_STRUCTURE	REPORTED_RESULT
C[N+](C)(C)c1ccc([N+](C)(C)C)cc1.O=C(C=C([O-])C(F)(F)F)c1ccc2ccccc2c1.O=C(C=C([O-])C(F)(F)F)c1ccc2ccccc2c1.O=C(C=C([O-])C(F)(F)F)c1ccc2ccccc2c1.O=C(C=C([O-])C(F)(F)F)c1ccc2ccccc2c1.O=C(C=C([O-])C(F)(F)F)c1ccc2ccccc2c1.O=C(C=C([O-])C(F)(F)F)c1ccc2ccccc2c1.O=C(C=C([O-])C(F)(F)F)c1ccc2ccccc2c1.O=C(C=C([O-])C(F)(F)F)c1ccc2ccccc2c1.[Eu+3].[Eu+3]	over 10.0 w/v %
C[N+](C)(C)CCCC[N+](C)(C)C.O=C(C=C([O-])C(F)(F)F)c1ccc2ccccc2c1.O=C(C=C([O-])C(F)(F)F)c1ccc2ccccc2c1.O=C(C=C([O-])C(F)(F)F)c1ccc2ccccc2c1.O=C(C=C([O-])C(F)(F)F)c1ccc2ccccc2c1.O=C(C=C([O-])C(F)(F)F)c1ccc2ccccc2c1.O=C(C=C([O-])C(F)(F)F)c1ccc2ccccc2c1.O=C(C=C([O-])C(F)(F)F)c1ccc2ccccc2c1.O=C(C=C([O-])C(F)(F)F)c1ccc2ccccc2c1.[Eu+3].[Eu+3]	over 10.0 w/v %

---

Overview of reported Fluorescence Intensity across a group of molecules:
ASSAY: Fluorescence (photoluminescence) intensity in ethanol, fluorescence spectrophotometer RF-5300PC
Assay type: physicochemical
TEST_SETTINGS: 25 mg of compound in 100 ml of ethanol
// no unit, no text: just the number

Use the examples below as a reference point.
MOLECULE	Fluorescence Intensity
C[N+](C)(C)CCCCCC[N+](C)(C)C.O=C(C=C([O-])C(F)(F)F)c1ccc2ccccc2c1.O=C(C=C([O-])C(F)(F)F)c1ccc2ccccc2c1.O=C(C=C([O-])C(F)(F)F)c1ccc2ccccc2c1.O=C(C=C([O-])C(F)(F)F)c1ccc2ccccc2c1.O=C(C=C([O-])C(F)(F)F)c1ccc2ccccc2c1.O=C(C=C([O-])C(F)(F)F)c1ccc2ccccc2c1.O=C(C=C([O-])C(F)(F)F)c1ccc2ccccc2c1.O=C(C=C([O-])C(F)(F)F)c1ccc2ccccc2c1.[Eu+3].[Eu+3]	822
CCCC[N+](C)(C)CCCC[N+](C)(C)CCCC.O=C(C=C([O-])C(F)(F)F)c1ccc2ccccc2c1.O=C(C=C([O-])C(F)(F)F)c1ccc2ccccc2c1.O=C(C=C([O-])C(F)(F)F)c1ccc2ccccc2c1.O=C(C=C([O-])C(F)(F)F)c1ccc2ccccc2c1.O=C(C=C([O-])C(F)(F)F)c1ccc2ccccc2c1.O=C(C=C([O-])C(F)(F)F)c1ccc2ccccc2c1.O=C(C=C([O-])C(F)(F)F)c1ccc2ccccc2c1.O=C(C=C([O-])C(F)(F)F)c1ccc2ccccc2c1.[Eu+3].[Eu+3]	758
C[N+](C)(C)CCCC[N+](C)(C)C.O=C(C=C([O-])C(F)(F)F)c1cccs1.O=C(C=C([O-])C(F)(F)F)c1cccs1.O=C(C=C([O-])C(F)(F)F)c1cccs1.O=C(C=C([O-])C(F)(F)F)c1cccs1.O=C(C=C([O-])C(F)(F)F)c1cccs1.O=C(C=C([O-])C(F)(F)F)c1cccs1.O=C(C=C([O-])C(F)(F)F)c1cccs1.O=C(C=C([O-])C(F)(F)F)c1cccs1.[Eu+3].[Eu+3]	510
C[N+](C)(C)c1ccc(-c2ccc([N+](C)(C)C)cc2)cc1.O=C(C=C([O-])C(F)(F)F)c1ccc2ccccc2c1.O=C(C=C([O-])C(F)(F)F)c1ccc2ccccc2c1.O=C(C=C([O-])C(F)(F)F)c1ccc2ccccc2c1.O=C(C=C([O-])C(F)(F)F)c1ccc2ccccc2c1.O=C(C=C([O-])C(F)(F)F)c1ccc2ccccc2c1.O=C(C=C([O-])C(F)(F)F)c1ccc2ccccc2c1.O=C(C=C([O-])C(F)(F)F)c1ccc2ccccc2c1.O=C(C=C([O-])C(F)(F)F)c1ccc2ccccc2c1.[Eu+3].[Eu+3]	644
O=C(C=C([O-])C(F)(F)F)c1cccs1.O=C(C=C([O-])C(F)(F)F)c1cccs1.O=C(C=C([O-])C(F)(F)F)c1cccs1.[Eu+3] [Metal Complex Intermediate 2]	566

Lab note: next molecule to report on.
Give the measured Fluorescence Intensity of `C[N+](C)(C)c1ccc([N+](C)(C)C)cc1.O=C(C=C([O-])C(F)(F)F)c1ccc2ccccc2c1.O=C(C=C([O-])C(F)(F)F)c1ccc2ccccc2c1.O=C(C=C([O-])C(F)(F)F)c1ccc2ccccc2c1.O=C(C=C([O-])C(F)(F)F)c1ccc2ccccc2c1.O=C(C=C([O-])C(F)(F)F)c1ccc2ccccc2c1.O=C(C=C([O-])C(F)(F)F)c1ccc2ccccc2c1.O=C(C=C([O-])C(F)(F)F)c1ccc2ccccc2c1.O=C(C=C([O-])C(F)(F)F)c1ccc2ccccc2c1.[Eu+3].[Eu+3]` .
766

# credit: patent US20050008896A1
